Assay Name: gradient 5% acetonitrile 3 min, to 50% in 2 min, to 85% in 15 min, held 3 min, 100 µL/min
Setup Conditions: column: Zorbax Extend-C18 2.1 x 50 mm; eluents: water / acetonitrile, 0.1% formic acid
Measured Quantity: RP-LC retention time (s)

Completed entries (count: 6):
Molecule	Observed Measurement
CCOc1ccc(NC(=O)CSc2ncc(S(=O)(=O)c3ccccc3)c(=O)[nH]2)cc1	737
NC(=O)CS(=O)C(c1ccccc1)c1ccccc1 (centres undefined)	710
CC(C)N1CCN(Cc2ccc(C(=O)NCCC3=CCCCC3)cc2)C(=O)C1=O	760
CCC(=O)N1CCc2c(C(=O)N3CCN(c4ccccc4Cl)CC3)cccc21	960
Cn1c(=O)c(N2CCCC(C(=O)NCc3cccc(Br)c3)C2)nc2ccccc21 (centres undefined)	998
CCn1c(=O)sc2cc(S(=O)(=O)N3CCC(C(=O)Nc4cccc5c4CCCC5)CC3)ccc21	1010

(1) CCCN(C)c1nccn2c(=O)n(CC(=O)Nc3ccc(C)cc3)nc12
(2) COc1ccc(-c2nc(Cn3ccn4nc(-c5ccccc5)cc4c3=O)c(C)o2)cc1
Query :: Compare RP-LC retention time: is it lower for 1 or for 2 ? Return value: the label identifying the chosen record.
Result :: 1
(1: 683 s, 2: 1100 s)

----------
Assay Name: gradient 5% acetonitrile 3 min, to 50% in 2 min, to 85% in 15 min, held 3 min, 100 µL/min
Setup Conditions: column: Zorbax Extend-C18 2.1 x 50 mm; eluents: water / acetonitrile, 0.1% formic acid
Measured Quantity: RP-LC retention time (s)

Compound	RP-LC retention time (s)
c1cncc(-c2noc(CCC3CCCN(C4CCCCC4)C3)n2)c1 (stereo not given)	624
CCNc1nc(C)cc(N2CCN(S(=O)(=O)c3cc(Cl)ccc3Cl)CC2)n1	776
CC(C)CNC(=O)CCn1c(=O)c2ccccc2n2c(=O)n(Cc3ccccc3F)nc12	879

(A) CCc1nc2ccc(-c3noc(-c4cccc(C#N)c4)n3)cc2n1CC
(B) CC(/C=C1\SC(=S)N(CC(=O)O)C1=O)=C\c1ccccc1
Query :: Select the item with the higher value of RP-LC retention time from the options A and B listed. Return value: the label identifying the chosen record.
Result :: B
(B: 1150 s, A: 710 s)

(1) CNC(=O)c1ccccc1C(=O)NCCc1nc(-c2cnccn2)no1
(2) Cc1ccc(-c2nnc(-c3ccccc3)o2)cc1S(=O)(=O)N1CCCC1
Query :: Compare RP-LC retention time: is it lower for 1 or for 2 ? Return value: the label identifying the chosen record.
Result :: 1

----------
Assay Name: gradient 5% acetonitrile 3 min, to 50% in 2 min, to 85% in 15 min, held 3 min, 100 µL/min
Setup Conditions: column: Zorbax Extend-C18 2.1 x 50 mm; eluents: water / acetonitrile, 0.1% formic acid
Measured Quantity: RP-LC retention time (s)

Compound	Readout Units	RP-LC retention time
CC1CCN(C(=O)C2CCCN(C(=O)c3nnc(C(=O)Nc4ccc(F)cc4)s3)C2)CC1 (centres undefined)	s	661
CCN1CCN(CCCNC(=O)C2CCCN(c3nnc(-n4cccc4)s3)C2)CC1 (centres undefined)	s	572
CC(C)c1ccc(NC(=O)C(=O)c2cn(CC(=O)N3CCCC3)c3ccccc23)cc1	s	1140
O=C(CSc1nc2ccccc2o1)NCCn1nc(-c2ccco2)ccc1=O	s	674
COC(=O)[C@@H](N)CSC/C=C(\C)CC/C=C(\C)CCC=C(C)C	s	961
N#Cc1cc2c(nc1SCC(=O)Nc1nccs1)CCCCC2	s	871

(1) CCc1nn2c(CNC(=O)c3ccc(F)c(Cl)c3)c(-c3ccccc3)nc2s1
(2) Cc1ccccc1-c1nc2cnccn2c1NCCC(=O)NCc1ccco1
Query :: Compare RP-LC retention time: is it lower for 1 or for 2 ? Return value: the label identifying the chosen record.
Result :: 2
(2: 624 s, 1: 1020 s)

These data points were gathered from the METLIN SMRT retention time set (Domingo-Almenara et al. 2019).
